Origin of values: patent US4673675A

test_method_notes: Toxicity by a single intravenous administration in mice
Type: in vivo
experimental_conditions: mouse, in vivo; single intravenous administration, mice; Litchfield and Wilcoxon; read-out: LD50 (95% confidence limit)
Parameter LD50 at 168 h: see the listing below.
Give the value in mg/kg but do not write mg/kg after it.

[[record]]
molecule = "c1ccc(N2CCN(CCN3CCCCCC3)CC2)nc1"
readout_units = "mg/kg"
value = 84

[[record]]
molecule = "COc1cc(CN2CCN(c3ccccn3)CC2)cc(OC)c1OC"
readout_units = "mg/kg"
value = 130

[[record]]
molecule = "CC(C)N(CCN1CCN(c2ccccn2)CC1)C(C)C"
readout_units = "mg/kg"
value = 95

[[record]]
molecule = "c1ccc(N2CCN(CCCN3CCCC3)CC2)nc1"
readout_units = "mg/kg"
value = 142

[[record]]
molecule = "CC1CN(CCCN2CCN(c3ccccn3)CC2)CC(C)O1 (stereo not shown)"
readout_units = "mg/kg"
value = 149


So what's the measured LD50 at 168 h for this one? c1ccc(N2CCN(CC3CCCCC3)CC2)nc1
81

So what's the measured LD50 at 168 h for this one? c1ccc(N2CCN(CC3CC3)CC2)nc1
47

So what's the measured LD50 at 168 h for this one? O=C(CN1CCN(c2ccccn2)CC1)Nc1cccc(C(F)(F)F)c1
109

So what's the measured LD50 at 168 h for this one? c1ccc(N2CCN(CCCN3CCCCCC3)CC2)nc1
74

So what's the measured LD50 at 168 h for this one? O=C(CN1CCN(c2ccccn2)CC1)Nc1cccc(F)c1
129

So what's the measured LD50 at 168 h for this one? c1ccc(N2CCN(CC3CCC3)CC2)nc1
67

So what's the measured LD50 at 168 h for this one? CCN(CC)CC(C)N1CCN(c2ccccn2)CC1 (stereo not shown)
76

So what's the measured LD50 at 168 h for this one? CCN(CC)CCCN1CCN(c2ccccn2)CC1
96
